test system: Escherichia coli; test: Antibacterial activity against Escherichia coli IHMA 940398 by CLSI based broth microdilution method; assay type: functional
Numbered stars: 1 amine (or outer) side, 2 acyl side, 3 side chain; on linkers, the order of the positions; unused ones are H or OH. Bridge positions count the residues as written; N and C are the ends. Square brackets hold non-standard residues; d marks the D form. Peptide text beside a SMILES is read from it. GABA(3R-Bn) = O=C(C[C@H](CN[*:1])Cc1ccccc1)[*:2]; Dab = NCC[C@H](N)C(=O)O; Dap = NC[C@H](N)C(=O)O
endpoint_label: MIC (µg/mL)

CC(C)C[C@@H]1NC(=O)[C@@H](Cc2ccccc2)NC(=O)[C@H](CCN)NC(=O)[C@@H](NC(=O)[C@H](CN)NC(=O)[C@@H](NC(=O)C[C@H](CN)Cc2ccccc2)[C@@H](C)O)CCNC(=O)[C@H]([C@@H](C)O)NC(=O)[C@H](CCN)NC(=O)[C@H](CCN)NC1=O ({GABA(3R-Bn)}-T[Dap][Dab][Dab][dF]L[Dab][Dab]T; lactam 3-C) :: 32

(1) CC(C)C[C@@H]1NC(=O)[C@@H](CC2CCCCC2)NC(=O)[C@H](CCN)NC(=O)[C@@H](NC(=O)[C@H](CN)NC(=O)[C@@H](NC(=O)C[C@H](CN)Cc2ccccc2)[C@@H](C)O)CCNC(=O)[C@H]([C@@H](C)O)NC(=O)[C@H](CCN)NC(=O)[C@H](CCN)NC1=O
(2) CC(C)C[C@@H]1NC(=O)[C@@H](CC2CCCCC2)NC(=O)[C@H](CCN)NC(=O)[C@@H](NC(=O)[C@H](CN)NC(=O)[C@@H](NC(=O)C[C@H](CN)C2CCCCC2)[C@@H](C)O)CCNC(=O)[C@H]([C@@H](C)O)NC(=O)[C@H](CCN)NC(=O)[C@H](CCN)NC1=O
QUERY: Param pair: 1 , 2 . Output: the one whose MIC is numerically greater. Indicate your choice by writing its label.
RESULT: 1
